Test system: NOMO1
assayNotes: cell viability relative to DMSO control; higher = less cytotoxic
conditionDetails: HPLM + 10% dialyzed FBS; 48 h; 1.71 µM
As shown below, each of these compounds has a reported cell viability value.
Only the number, expressed in %, is required.

>>> observed("N[C@@H](Cc1ccc(O)c(O)c1)C(=O)O")
136
>>> observed("O=[S+]([O-])(NCCNC/C=C/c1ccc(Br)cc1)c1cccc2cnccc12")
97.5
>>> observed("O=C(NCc1ccccc1)c1csc(Nc2ccncn2)n1")
51.2
>>> observed("NCCc1ccc(O)c(O)c1")
125
>>> observed("O=C(O)Cc1cccc(OCCCN(Cc2cccc(C(F)(F)F)c2Cl)CC(c2ccccc2)c2ccccc2)c1")
99.3

// moving on: another record for cell viability
Lookup: Fill in cell viability for record CN(C)CCc1c[nH]c2ccc(C[S+](=O)([O-])N3CCCC3)cc12
Found: 125

* * *

Test system: NOMO1
assayNotes: cell viability relative to DMSO control; higher = less cytotoxic
conditionDetails: RPMI 5 mM glucose + 10% FBS; 48 h; 0.569 µM
# Lookup of reported cell viability keyed by entry
// note: answer is a bare numeric in %

# example entries with known answers
>>> observed("O=C(NCC1CCOCC1)c1cnc(Nc2ccc(Cl)cc2Cl)nc1C(F)(F)F")
117
>>> observed("CCOC(=O)[C@H]1O[C@@H]1C(=O)N[C@@H](CC(C)C)C(=O)NCCC(C)C")
114
>>> observed("CCOCC(O)COc1ccc(NC(=O)CC[S+](C)C)cc1 (centres undefined)")
89.7

Lookup: Indicate its recorded cell viability; the compound in question is COc1ccc([S+](=O)([O-])Nc2cccnc2Nc2ccc(O)cc2)cc1
Found: 129

Lookup: Provide measured cell viability value, entry: NCCc1ccc(O)c(O)c1
Found: 113

Lookup: For the compound CN(C)[C@@H](CCOc1cccc2ccccc12)c1ccccc1 , give its measured cell viability value.
Found: 110

Lookup: Supply reported cell viability belonging to this compound: CCCCCN(CCC12CC3CC(CC(C3)C1)C2)C(=O)NCCCc1ccncc1
Found: 97.8

Lookup: Name the recorded cell viability of the item Cc1ccc(-c2cc(C(F)(F)F)nn2-c2ccc([S+](N)(=O)[O-])cc2)cc1 in your answer.
Found: 115

Lookup: Assign cell viability to the following record: Oc1ccc([C@@H]2Oc3ccc(O)cc3[C@@H]3CCC[C@@H]32)cc1
Found: 99.9

Lookup: Answer with reported cell viability of C[C@@H](N)C1CC[C@@H](CC1)C(=O)NC2=CC=NC=C2 (some centres undefined)
Found: 122

Lookup: Answer with the recorded cell viability for the compound listed here: CCC(C1CCC(C)C(O1)C(C)C(O)C(C)C(=O)C(CC)C2OC\3(O[C@]4(CC[C@@](C)(O4)C5CC[C@@](O)(CC)C(C)O5)C(O)\C=C3)C(C)CC2C)C([O-])=O (some centres undefined)
Found: 97.1

Lookup: Please report cell viability for the following compound: CC(C)n1cnc2c(NCCc3ccc(O)cc3)nc(-c3csc4ccccc34)nc21
Found: 119

Lookup: Give the measured cell viability for CCOC(=O)N[C@@H]1CC[C@@H]2[C@@H](C1)C[C@H]1C(=O)O[C@H](C)[C@H]1[C@H]2/C=C/c1ccc(-c2cccc(F)c2)cn1
Found: 120

Lookup: In one line, give reported cell viability of the entry CC(C)(O)C(=O)Nc1ccc([N+](=O)[O-])c(C(F)(F)F)c1 .
Found: 125
